Test system: K. pneumoniae ATCC 13833
Experiment: microbe, parasite or virus in culture
Settings: ATCC 13833, 18 h
Where a SMILES comes first, the peptide text is derived from it. Bridges are numbered along the chain shown (N, C = ends). [ ]: non-standard residue; d: D form. The star is where a group is joined. dDab = NCC[C@@H](N)C(=O)O; Octanoyl = CCCCCCCC(=O)*; Dab = NCC[C@H](N)C(=O)O
Documented MIC K. pneumoniae ATCC 13833 across a set of molecules

{"molecule": "CCCCCCCC(=O)N[C@@H](CO)C(=O)N[C@H](CCN)C(=O)N[C@H]1CCNC(=O)[C@H]([C@@H](C)O)NC(=O)[C@H](CCN)NC(=O)[C@H](CCN)NC(=O)[C@H](CC(C)C)NC(=O)[C@@H](Cc2ccccc2)NC(=O)[C@H](CCN)NC1=O [Compound 30] (Octanoyl-S[dDab][Dab][Dab][dF]L[Dab][Dab]T; lactam 3-C)", "MIC K. pneumoniae ATCC 13833": ">32 µg/mL"}

Return reported MIC K. pneumoniae ATCC 13833; argument: CCCCCCCC(=O)N[C@@H](Cc1ccc(O)cc1)C(=O)N[C@H](CCN)C(=O)N[C@H]1CCNC(=O)[C@H]([C@@H](C)O)NC(=O)[C@H](CCN)NC(=O)[C@H](CCN)NC(=O)[C@H](CC(C)C)NC(=O)[C@@H](Cc2ccccc2)NC(=O)[C@H](CCN)NC1=O [Compound 29] (Octanoyl-Y[dDab][Dab][Dab][dF]L[Dab][Dab]T; lactam 3-C) >32 µg/mL

Now consider CCCCCCCC(=O)N[C@H](C(=O)N[C@@H](CO)C(=O)N[C@H]1CCNC(=O)[C@H]([C@@H](C)O)NC(=O)[C@H](CCN)NC(=O)[C@H](CCN)NC(=O)[C@H](CC(C)C)NC(=O)[C@@H](Cc2ccccc2)NC(=O)[C@H](CCN)NC1=O)[C@@H](C)O [Compound 35] (Octanoyl-TS[Dab][Dab][dF]L[Dab][Dab]T; lactam 3-C) . >32 µg/mL

----------
Assay: in vitro
Settings: human
Where a SMILES comes first, the peptide text is derived from it. Bridges are numbered along the chain shown (N, C = ends). [ ]: non-standard residue; d: D form. The star is where a group is joined. dDab = NCC[C@@H](N)C(=O)O; Octanoyl = CCCCCCCC(=O)*; Dab = NCC[C@H](N)C(=O)O
quantityName: CC50 at 24 h (µM)
Numeric answer only, unit µM assumed.

{"compound": "CCCCCCCC(=O)N[C@H](C(=O)N[C@@H](CCN)C(=O)N[C@H]1CCNC(=O)[C@H]([C@@H](C)O)NC(=O)[C@H](CCN)NC(=O)[C@H](CCN)NC(=O)[C@H](CC(C)C)NC(=O)[C@@H](Cc2ccccc2)NC(=O)[C@H](CCN)NC1=O)[C@@H](C)O [Compound 8] (Octanoyl-T[Dab][Dab][Dab][dF]L[Dab][Dab]T; lactam 3-C)", "unit": "µM", "CC50 at 24 h": 209}
{"compound": "CCCCCCCC(=O)N[C@H](C(=O)N[C@@H](CO)C(=O)N[C@H]1CCNC(=O)[C@H]([C@@H](C)O)NC(=O)[C@H](CCN)NC(=O)[C@H](CCN)NC(=O)[C@H](CC(C)C)NC(=O)[C@@H](Cc2ccccc2)NC(=O)[C@H](CCN)NC1=O)[C@@H](C)O [Compound 35] (Octanoyl-TS[Dab][Dab][dF]L[Dab][Dab]T; lactam 3-C)", "unit": "µM", "CC50 at 24 h": 220}

Given the entry CCCCCCCC(=O)N[C@@H](CCN)C(=O)N[C@H](C(=O)N[C@H](CCN)C(=O)N[C@H]1CCNC(=O)[C@H]([C@@H](C)O)NC(=O)[C@H](CCN)NC(=O)[C@H](CCN)NC(=O)[C@H](CC(C)C)NC(=O)[C@@H](Cc2ccccc2)NC(=O)[C@H](CCN)NC1=O)[C@@H](C)O [Compound 20] (Octanoyl-[Dab]T[dDab][Dab][Dab][dF]L[Dab][Dab]T; lactam 4-C) , report its measured CC50 at 24 h. 183

Another: CCCCCCCC(=O)N[C@@H](CCN)C(=O)N[C@H](C(=O)N[C@H]1CCNC(=O)[C@H]([C@@H](C)O)NC(=O)[C@H](CCN)NC(=O)[C@H](CCN)NC(=O)[C@H](CC(C)C)NC(=O)[C@@H](Cc2ccccc2)NC(=O)[C@H](CCN)NC1=O)[C@@H](C)O [Compound 9] (Octanoyl-[Dab]T[Dab][Dab][dF]L[Dab][Dab]T; lactam 3-C) 79

Let us now turn to CCCCCCCC(=O)N[C@H](C(=O)N[C@H](CO)C(=O)N[C@H]1CCNC(=O)[C@H]([C@@H](C)O)NC(=O)[C@H](CCN)NC(=O)[C@H](CCN)NC(=O)[C@H](CC(C)C)NC(=O)[C@@H](Cc2ccccc2)NC(=O)[C@H](CCN)NC1=O)[C@@H](C)O [Compound 36] (Octanoyl-T[dS][Dab][Dab][dF]L[Dab][Dab]T; lactam 3-C) 213

----------
Tested on: P. aeruginosa ATTC 27853
Assay: microbe, parasite or virus in culture
Details: ATTC 27853, 18 h
Where a SMILES comes first, the peptide text is derived from it. Bridges are numbered along the chain shown (N, C = ends). [ ]: non-standard residue; d: D form. The star is where a group is joined. X2 = CCCCCOc1cccc(C(=O)*)c1; Octanoyl = CCCCCCCC(=O)*; Dab = NCC[C@H](N)C(=O)O
Listed here: items and their measured MIC P. aeruginosa ATTC 27853.
Report the value in µg/mL with no unit label.

{"molecule": "CCCCCCCC(=O)N[C@H](C(=O)N[C@@H](CCCNC(=N)N)C(=O)N[C@H]1CCNC(=O)[C@H]([C@@H](C)O)NC(=O)[C@H](CCN)NC(=O)[C@H](CCN)NC(=O)[C@H](CC(C)C)NC(=O)[C@@H](Cc2ccccc2)NC(=O)[C@H](CCN)NC1=O)[C@@H](C)O [Compound 45] (Octanoyl-TR[Dab][Dab][dF]L[Dab][Dab]T; lactam 3-C)", "MIC P. aeruginosa ATTC 27853 (µg/mL)": 4}

Let's switch to this molecule now.
Please look up its MIC P. aeruginosa ATTC 27853: CCCCCOc1cccc(C(=O)N[C@H](C(=O)N[C@@H](CCN)C(=O)N[C@H]2CCNC(=O)[C@H]([C@@H](C)O)NC(=O)[C@H](CCN)NC(=O)[C@H](CCN)NC(=O)[C@H](CC(C)C)NC(=O)[C@@H](Cc3ccccc3)NC(=O)[C@H](CCN)NC2=O)[C@@H](C)O)c1 [Compound 11] (X2-T[Dab][Dab][Dab][dF]L[Dab][Dab]T; lactam 3-C) 2

----------
Tested on: K. pneumoniae ATCC 700603
Experiment: microbe, parasite or virus in culture
Settings: ATCC 700603, 18 h
Where a SMILES comes first, the peptide text is derived from it. Bridges are numbered along the chain shown (N, C = ends). [ ]: non-standard residue; d: D form. The star is where a group is joined. Benzoyl(3-Ph) = O=C(c1cccc(-c2ccccc2)c1)*; Benzoyl(4-hexyl) = CCCCCCc1ccc(C(=O)*)cc1; Decanoyl(3R-OH) = CCCCCCC[C@@H](O)CC(=O)*; Butanoyl(4-OPh) = O=C(CCCOc1ccccc1)*; dDab = NCC[C@@H](N)C(=O)O; Octanoyl = CCCCCCCC(=O)*; Dab = NCC[C@H](N)C(=O)O
List of MIC K. pneumoniae ATCC 700603 values.
Please state the figure in µg/mL; there is no need to write the unit.

In the examples that follow, each entry is paired with its recorded MIC K. pneumoniae ATCC 700603.
{"compound": "CC(C)C[C@@H]1NC(=O)[C@@H](Cc2ccccc2)NC(=O)[C@H](CCN)NC(=O)[C@@H](NC(=O)[C@@H](CCN)NC(=O)[C@@H](NC(=O)CCCOc2ccccc2)[C@@H](C)O)CCNC(=O)[C@H]([C@@H](C)O)NC(=O)[C@H](CCN)NC(=O)[C@H](CCN)NC1=O [Compound 26] ({Butanoyl(4-OPh)}-T[dDab][Dab][Dab][dF]L[Dab][Dab]T; lactam 3-C)", "unit": "µg/mL", "MIC K. pneumoniae ATCC 700603": 1}
{"compound": "CC(C)C[C@@H]1NC(=O)[C@@H](Cc2ccccc2)NC(=O)[C@H](CCN)NC(=O)[C@@H](NC(=O)[C@H](CCN)NC(=O)[C@@H](NC(=O)c2cccc(-c3ccccc3)c2)[C@@H](C)O)CCNC(=O)[C@H]([C@@H](C)O)NC(=O)[C@H](CCN)NC(=O)[C@H](CCN)NC1=O [Compound 14] ({Benzoyl(3-Ph)}-T[Dab][Dab][Dab][dF]L[Dab][Dab]T; lactam 3-C)", "unit": "µg/mL", "MIC K. pneumoniae ATCC 700603": 32}
{"compound": "CCCCCCCC(=O)NCC(=O)N[C@H](CCN)C(=O)N[C@H]1CCNC(=O)[C@H]([C@@H](C)O)NC(=O)[C@H](CCN)NC(=O)[C@H](CCN)NC(=O)[C@H](CC(C)C)NC(=O)[C@@H](Cc2ccccc2)NC(=O)[C@H](CCN)NC1=O [Compound 33] (Octanoyl-G[dDab][Dab][Dab][dF]L[Dab][Dab]T; lactam 3-C)", "unit": "µg/mL", "MIC K. pneumoniae ATCC 700603": 32}

Please give the measured MIC K. pneumoniae ATCC 700603 for this compound: CCCCCCc1ccc(C(=O)N[C@H](C(=O)N[C@@H](CCN)C(=O)N[C@H]2CCNC(=O)[C@H]([C@@H](C)O)NC(=O)[C@H](CCN)NC(=O)[C@H](CCN)NC(=O)[C@H](CC(C)C)NC(=O)[C@@H](Cc3ccccc3)NC(=O)[C@H](CCN)NC2=O)[C@@H](C)O)cc1 [Compound 12] ({Benzoyl(4-hexyl)}-T[Dab][Dab][Dab][dF]L[Dab][Dab]T; lactam 3-C) 4

Then CCCCCCC[C@@H](O)CC(=O)N[C@H](C(=O)NCC(=O)N[C@H]1CCNC(=O)[C@H]([C@@H](C)O)NC(=O)[C@H](CCN)NC(=O)[C@H](CCN)NC(=O)[C@H](CC(C)C)NC(=O)[C@@H](Cc2ccccc2)NC(=O)[C@H](CCN)NC1=O)[C@@H](C)O [Compound 52] ({Decanoyl(3R-OH)}-TG[Dab][Dab][dF]L[Dab][Dab]T; lactam 3-C) ? 4

Please answer likewise for CCCCCCCC(=O)N[C@H](C(=O)N[C@@H](CCCNC(=N)N)C(=O)N[C@H]1CCNC(=O)[C@H]([C@@H](C)O)NC(=O)[C@H](CCN)NC(=O)[C@H](CCN)NC(=O)[C@H](CC(C)C)NC(=O)[C@@H](Cc2ccccc2)NC(=O)[C@H](CCN)NC1=O)[C@@H](C)O [Compound 45] (Octanoyl-TR[Dab][Dab][dF]L[Dab][Dab]T; lactam 3-C) 8
